Measured values drawn from PubChem BioAssay (Tox21) for this set.

# assayed_target: Nuclear receptor subfamily 1 group I member 3 (Homo sapiens) (UniProt Q14994)
# Sequence (Q14994 whole entry, looked up): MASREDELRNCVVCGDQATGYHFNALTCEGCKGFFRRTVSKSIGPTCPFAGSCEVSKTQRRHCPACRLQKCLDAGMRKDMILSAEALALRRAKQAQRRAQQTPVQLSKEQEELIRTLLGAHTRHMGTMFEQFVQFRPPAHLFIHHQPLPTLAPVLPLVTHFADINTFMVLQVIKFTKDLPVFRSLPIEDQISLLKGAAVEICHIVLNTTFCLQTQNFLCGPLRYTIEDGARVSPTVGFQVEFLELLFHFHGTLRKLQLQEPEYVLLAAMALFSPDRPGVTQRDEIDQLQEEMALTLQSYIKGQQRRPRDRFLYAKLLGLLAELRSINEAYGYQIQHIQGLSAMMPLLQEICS
# protocol_notes: qHTS assay to identify small molecule agonists of the constitutive androstane receptor (CAR) signaling pathway (AID 1224839); also: nearly all actives have a fitted effect of over 15% in size;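 as to activation: HepG2 cells stably carrying human CAR and a CYP2B6 luciferase reporter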
# protocol_conditions: HepG2 hCAR CYP2B6-luciferase, agonist mode, 24 h; series mostly up to 92.4 µM
# Source text: National Center for Advancing Translational Sciences [NCATS] NIH Chemical Genomics Center [NCGC] U.S. Environmental Protection Agency [EPA] National Institutes of Environmental Health Sciences [NIEHS] National Toxicology Program [NTP] […] Assay Protocol Summary: A double-stable (hCAR and CYP2B6-2.2kb) transfected cell line, derived from human hepatoma (HepG2) cells, was utilized for the duration of the quantitative high-throughput screens. […]
Records with an inconclusive call do not appear. The source made the active and inactive calls. Calls follow the shape of the dose curve; as a rule, active = well fitted activation curve with a large enough effect in the repeat runs; inconclusive = weak or mixed curves; inactive = no such curve, though single readings can be large or run the other way.
Labels: yes (active), no (inactive)

molecule: COc1ccccc1Oc1c(NS(=O)(=O)c2ccc(C(C)(C)C)cc2)nc(-c2ncccn2)nc1OCCO
classification: no
--
molecule: O=C(O)CCCCCCCCCCCBr
classification: no
--
molecule: COC(=O)[C@H]1[C@H]2C[C@@H]3c4[nH]c5cc(OC)ccc5c4CCN3C[C@H]2C[C@@H](OC(=O)/C=C/c2ccc(O)c(OC)c2)[C@@H]1OC
classification: no
--
molecule: O=c1cc(-c2ccccc2)oc2cc(O)cc(O)c12
classification: yes
--
molecule: Cc1ccccc1S
classification: no
--
molecule: Cc1cccc(O)c1N
classification: no
--
molecule: O=C1c2ccccc2C(=O)C1c1ccc(Br)cc1
classification: yes
--
molecule: CC(=O)OCC(=O)NCCCOc1cccc(CN2CCCCC2)c1
classification: no
--
molecule: C=C(C)C(=O)OCCCCCCCCCCCCC
classification: no
--
molecule: Cc1ccc(C(C)(C)O)cc1
classification: no
--
molecule: C=CCc1ccccc1OCC(O)CNC(C)C (stereo unspecified)
classification: no
--
molecule: Cc1[nH]cnc1CN1CCc2c(c3ccccc3n2C)C1=O
classification: no
--
molecule: C=C1c2cccc(O)c2C(O)=C2C(=O)[C@]3(O)C(O)=C(C(N)=O)C(=O)[C@@H](N(C)C)[C@@H]3[C@@H](O)[C@H]12
classification: no
--
molecule: CCC=CC#N
classification: no
--
molecule: CCCCCCCCN
classification: no
--
molecule: O=C1c2ccccc2C(=O)C1(O)O
classification: no
--
molecule: Cc1cc(O)c(C)c(C)c1O
classification: no
--
molecule: Cc1c(C)c2c(c(C)c1OC(=O)CCC(=O)OCCO)CC[C@@](C)(CCC[C@H](C)CCC[C@H](C)CCCC(C)C)O2
classification: no
--
molecule: O=c1cc(-c2ccccc2)oc2ccc3ccccc3c12
classification: yes
--
molecule: CC(C)C=O
classification: no
--
molecule: CCCCCCCCCCCCCCN(CCO)CCO
classification: no
--
molecule: CC(C)c1nc(CN(C)C(=O)N[C@H](C(=O)N[C@@H](Cc2ccccc2)C[C@H](O)[C@H](Cc2ccccc2)NC(=O)OCc2cncs2)C(C)C)cs1
classification: no
--
molecule: Nc1nnc(-c2ccc([N+](=O)[O-])o2)o1
classification: no
--
molecule: Cc1ccco1
classification: no
--
molecule: CC(CCC(=O)O)C(=O)O (stereo unspecified)
classification: no
--
molecule: CC(C)COCC(CN(Cc1ccccc1)c1ccccc1)N1CCCC1 (stereo unspecified)
classification: no
--
molecule: CCCC(=O)C(=O)O
classification: no
--
molecule: C[C@]12CC[C@@H]3c4ccc(O)cc4CC[C@H]3[C@@H]1CC[C@@H]2OC(=O)CCC1CCCC1
classification: yes
--
molecule: C=CC(C)(CCC=C(C)C)OC(=O)CC(C)C (stereo unspecified)
classification: no
--
molecule: Nc1cccc2c1CN(C1CCC(=O)NC1=O)C2=O (stereo unspecified)
classification: no
--
molecule: OC[C@H]1O[C@@H](n2cnc3c(=S)nc[nH]c32)[C@H](O)[C@@H]1O
classification: no
